Entries with reported IC50 on Nitric oxide synthase 1 (Homo sapiens, UniProt P29475)
Sequence (P29475 whole entry): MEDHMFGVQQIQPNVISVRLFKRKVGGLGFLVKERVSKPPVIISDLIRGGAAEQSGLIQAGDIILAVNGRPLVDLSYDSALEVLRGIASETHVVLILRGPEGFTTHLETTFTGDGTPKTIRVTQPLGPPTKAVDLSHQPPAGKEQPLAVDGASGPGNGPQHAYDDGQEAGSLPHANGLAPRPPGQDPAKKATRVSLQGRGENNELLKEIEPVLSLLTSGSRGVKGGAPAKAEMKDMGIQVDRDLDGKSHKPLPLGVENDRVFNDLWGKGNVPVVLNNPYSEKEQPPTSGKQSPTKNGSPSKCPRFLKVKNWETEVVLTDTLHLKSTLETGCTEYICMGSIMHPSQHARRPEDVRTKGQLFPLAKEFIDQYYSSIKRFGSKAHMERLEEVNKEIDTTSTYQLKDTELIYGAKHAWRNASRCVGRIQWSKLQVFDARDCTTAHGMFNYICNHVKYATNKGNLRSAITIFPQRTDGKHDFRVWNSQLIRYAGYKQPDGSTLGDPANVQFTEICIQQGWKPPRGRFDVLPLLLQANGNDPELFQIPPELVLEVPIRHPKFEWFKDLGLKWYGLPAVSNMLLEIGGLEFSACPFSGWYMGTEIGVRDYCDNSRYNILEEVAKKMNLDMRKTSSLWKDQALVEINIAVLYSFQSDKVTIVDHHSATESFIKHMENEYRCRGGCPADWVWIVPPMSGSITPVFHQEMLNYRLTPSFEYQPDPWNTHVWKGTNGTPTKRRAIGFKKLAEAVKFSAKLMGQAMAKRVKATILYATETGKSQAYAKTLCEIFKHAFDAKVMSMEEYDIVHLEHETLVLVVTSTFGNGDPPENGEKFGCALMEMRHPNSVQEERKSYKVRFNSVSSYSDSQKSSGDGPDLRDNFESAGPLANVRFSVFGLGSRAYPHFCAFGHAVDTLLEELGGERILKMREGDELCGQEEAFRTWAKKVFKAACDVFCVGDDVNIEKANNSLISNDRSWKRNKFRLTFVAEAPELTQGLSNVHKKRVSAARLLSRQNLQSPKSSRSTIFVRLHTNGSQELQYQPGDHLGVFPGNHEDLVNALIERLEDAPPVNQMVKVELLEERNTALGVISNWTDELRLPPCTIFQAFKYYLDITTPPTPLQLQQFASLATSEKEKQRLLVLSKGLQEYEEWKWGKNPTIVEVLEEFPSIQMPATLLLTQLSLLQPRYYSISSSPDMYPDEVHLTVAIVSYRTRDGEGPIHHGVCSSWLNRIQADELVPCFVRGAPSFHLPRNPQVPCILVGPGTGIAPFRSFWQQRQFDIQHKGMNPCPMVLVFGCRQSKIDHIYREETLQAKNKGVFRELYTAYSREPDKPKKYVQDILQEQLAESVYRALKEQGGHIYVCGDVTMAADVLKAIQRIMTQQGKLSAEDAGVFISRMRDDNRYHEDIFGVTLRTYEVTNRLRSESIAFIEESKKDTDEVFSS
Reply with just the number (in µM).

Completed entries (count: 3):
{"columns": ["compound", "readout kind", "measurement"],
 "data": [
  ["CC1=CC2Cc3nc4cc(Cl)ccc4c(NCCCCCCNC(=O)[C@@H](N)Cc4c[nH]c5ccccc45)c3C(C1)C2 (some centres undefined)", "IC50", 18.5],
  ["CC1=CC2Cc3nc4cc(Cl)ccc4c(NCCCCCCCNC(=O)[C@@H](N)Cc4c[nH]c5ccccc45)c3C(C1)C2 (some centres undefined)", "IC50", 35],
  ["COc1ccc2nc3c(c(N)c2c1)C1CC(C)=CC(C3)C1 (racemic)", "IC50", 32]
]}

// switching to the query compound
State recorded IC50 with Nitric oxide synthase 1 (Homo sapiens, UniProt P29475), entry `N[C@@H](Cc1c[nH]c2ccccc12)C(=O)NCCCCCCNc1c2c(nc3cc(Cl)ccc13)CCCC2` , no comment.
26
